Molecular target: VLA4 (Homo sapiens, UniProt P05556+P13612)
Construct: endogenous in cells; host or cells: Ramos cells
Sequence (P13612 34-1032): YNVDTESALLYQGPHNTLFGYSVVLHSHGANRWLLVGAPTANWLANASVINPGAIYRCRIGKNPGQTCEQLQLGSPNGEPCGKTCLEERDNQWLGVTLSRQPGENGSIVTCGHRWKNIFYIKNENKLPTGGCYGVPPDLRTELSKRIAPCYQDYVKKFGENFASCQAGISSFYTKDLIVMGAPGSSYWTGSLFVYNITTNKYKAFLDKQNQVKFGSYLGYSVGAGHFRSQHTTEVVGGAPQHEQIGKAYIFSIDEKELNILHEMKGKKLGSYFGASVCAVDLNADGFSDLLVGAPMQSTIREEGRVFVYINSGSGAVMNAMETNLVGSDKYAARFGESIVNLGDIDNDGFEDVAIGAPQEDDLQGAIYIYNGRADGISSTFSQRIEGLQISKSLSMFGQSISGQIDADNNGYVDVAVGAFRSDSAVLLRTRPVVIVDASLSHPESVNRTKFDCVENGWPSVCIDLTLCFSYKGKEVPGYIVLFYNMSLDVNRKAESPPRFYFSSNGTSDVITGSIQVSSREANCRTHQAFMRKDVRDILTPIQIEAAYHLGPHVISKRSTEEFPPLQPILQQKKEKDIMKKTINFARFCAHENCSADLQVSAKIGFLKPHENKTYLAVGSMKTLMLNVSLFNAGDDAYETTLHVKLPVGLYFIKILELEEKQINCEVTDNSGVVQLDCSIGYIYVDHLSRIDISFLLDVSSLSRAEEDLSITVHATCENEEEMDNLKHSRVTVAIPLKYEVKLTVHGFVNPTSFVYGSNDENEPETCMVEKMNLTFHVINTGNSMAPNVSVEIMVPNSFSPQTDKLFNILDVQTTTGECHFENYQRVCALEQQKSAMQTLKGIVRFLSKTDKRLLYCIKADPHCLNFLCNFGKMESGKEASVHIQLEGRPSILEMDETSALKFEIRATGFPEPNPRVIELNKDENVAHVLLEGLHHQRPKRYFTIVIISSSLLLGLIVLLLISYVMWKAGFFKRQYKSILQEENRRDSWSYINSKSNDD
Sequence (P05556 21-798): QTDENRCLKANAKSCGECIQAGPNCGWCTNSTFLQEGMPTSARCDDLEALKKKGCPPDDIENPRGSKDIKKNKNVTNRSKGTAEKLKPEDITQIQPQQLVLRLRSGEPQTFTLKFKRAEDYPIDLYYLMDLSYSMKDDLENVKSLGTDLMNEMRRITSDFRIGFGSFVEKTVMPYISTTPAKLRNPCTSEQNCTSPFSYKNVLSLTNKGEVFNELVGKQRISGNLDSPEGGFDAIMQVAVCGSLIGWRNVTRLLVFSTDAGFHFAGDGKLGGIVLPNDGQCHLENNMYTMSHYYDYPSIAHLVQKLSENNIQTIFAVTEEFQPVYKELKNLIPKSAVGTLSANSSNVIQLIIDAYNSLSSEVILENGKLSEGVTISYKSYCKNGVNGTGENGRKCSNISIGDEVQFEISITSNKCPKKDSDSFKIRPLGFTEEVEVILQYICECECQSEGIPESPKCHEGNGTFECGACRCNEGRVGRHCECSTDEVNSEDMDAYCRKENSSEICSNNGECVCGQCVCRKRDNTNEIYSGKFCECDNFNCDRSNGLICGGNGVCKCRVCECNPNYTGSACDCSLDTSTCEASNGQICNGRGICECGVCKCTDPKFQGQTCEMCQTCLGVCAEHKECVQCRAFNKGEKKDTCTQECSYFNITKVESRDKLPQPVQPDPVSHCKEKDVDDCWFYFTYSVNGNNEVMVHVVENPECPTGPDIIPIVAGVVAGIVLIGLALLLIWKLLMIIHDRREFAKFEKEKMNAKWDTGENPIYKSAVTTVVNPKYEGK
Experiment: Inhibition of VLA4-dependent adhesion to BSA-CS1
Format: cell-based
Conditions: binding of BCECF-labelled Ramos cells to BSA-CS1 coated wells, 2 mM MnCl2; read-out: IC50
pIC50: −log10 of the molar value. Numbered stars: 1 amine (or outer) side, 2 acyl side, 3 side chain; on linkers, the order of the positions; unused ones are H or OH. Square brackets hold non-standard residues; d marks the D form. Peptide text beside a SMILES is read from it. * marks the point of attachment. X1 = O=C(Cc1ccc(N[*:1])cc1)[*:2]; NH(2-Me-phenyl) = Cc1ccccc1N*; CO = O=C([*:1])[*:2]; Bz = O=C(c1ccccc1)*
# key: entry, value: pIC50
parameter-measured: pIC50

molecule: CC(C)C[C@H](NC(=O)[C@H](Cc1ccccc1)NC(=O)c1ccccc1)C(=O)N[C@@H](CC(=O)O)C(=O)N[C@H](C(=O)O)C(C)C [Compound 153] (Bz-FLDV-OH)
parameter-measured: pIC50
recorded-measurement: < 5.00
//
molecule: Cc1ccccc1NC(=O)Nc1ccc(CC(=O)N[C@@H](CC(C)C)C(=O)N[C@@H](CC(=O)O)C(=O)N[C@@H](CC(=O)O)C(N)=O)cc1 [Compound 230]
parameter-measured: pIC50
recorded-measurement: > 7.30
//
molecule: Cc1ccccc1NC(=O)Nc1ccc(CC(=O)N2CCC[C@H]2C(=O)N[C@@H](CCC(=O)O)C(=O)N[C@H](CC(C)C)C(=O)O)cc1 [Compound 415]
parameter-measured: pIC50
recorded-measurement: 5.00 to 7.30
//
molecule: Cc1ccccc1NC(=O)Nc1ccc(CC(=O)N[C@@H](CC(C)C)C(=O)N2CCC[C@H]2C(=O)N[C@H](C(=O)N[C@@H](CC(=O)O)C(=O)O)C(C)C)cc1 [Compound 341] ({NH(2-Me-phenyl)-CO}-[X1]LPVD-OH)
parameter-measured: pIC50
recorded-measurement: < 5.00
//
molecule: Cc1ccccc1NC(=O)Nc1ccc(CC(=O)N[C@H](C(=O)N[C@@H](CC(=O)O)C(=O)N[C@H](CC(C)C)C(N)=O)[C@@H](C)O)cc1 [Compound 255]
parameter-measured: pIC50
recorded-measurement: > 7.30
//
molecule: CCCCCCNC(=O)C(NC(=O)C(CC(=O)O)NC(=O)C(CC(C)C)NC(=O)C1CCc2ccccc2N1)C(C)C (stereo not drawn) [Compound 114]
parameter-measured: pIC50
recorded-measurement: < 5.00
